- systemName: D(4) dopamine receptor (Homo sapiens, UniProt P21917)
- Sequence (P21917 whole entry): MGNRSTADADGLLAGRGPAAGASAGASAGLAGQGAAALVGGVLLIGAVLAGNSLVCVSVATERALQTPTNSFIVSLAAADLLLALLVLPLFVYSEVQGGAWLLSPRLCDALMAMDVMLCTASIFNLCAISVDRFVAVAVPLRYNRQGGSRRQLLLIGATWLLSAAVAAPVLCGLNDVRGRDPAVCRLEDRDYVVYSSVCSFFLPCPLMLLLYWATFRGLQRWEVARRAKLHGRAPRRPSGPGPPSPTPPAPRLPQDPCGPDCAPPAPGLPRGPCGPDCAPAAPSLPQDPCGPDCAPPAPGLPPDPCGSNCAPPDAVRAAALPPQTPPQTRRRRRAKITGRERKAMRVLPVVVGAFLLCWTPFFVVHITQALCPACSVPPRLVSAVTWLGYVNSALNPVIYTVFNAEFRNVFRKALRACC
pKi: −log10 of the molar value.
Decide by pKi: equal to or exceeding 8 means label 1, less means label 0.

Is it the case that COc1ccccc1N1CCN(CCCNC(=O)NN(Cc2ccccc2F)c2ccc(F)cc2)CC1 has pKi reaching or exceeding 8?
label 1

Is it the case that COc1ccc(N(Cc2cccc(OC)c2)NC(=O)NCCCN2CCN(c3ccccc3OC)CC2)cc1 has pKi reaching or exceeding 8?
label 0

Is it the case that O=C(NCCN1CCN(c2ccc(Br)cc2)CC1)NN(Cc1ccccc1)c1ccccc1 has pKi reaching or exceeding 8?
label 0

Is it the case that O=C(NCCCN1CCN(c2ccc(I)cc2)CC1)NN(Cc1ccccc1)c1ccccc1 has pKi reaching or exceeding 8?
label 0

Is it the case that O=C(NCCCN1CCN(c2ncccn2)CC1)NN(Cc1ccc(F)cc1)c1ccccc1 has pKi reaching or exceeding 8?
label 0

Is it the case that COc1ccccc1N1CCN(CCCNC(=O)NN(Cc2ccccc2F)c2ccc(Br)cc2)CC1 has pKi reaching or exceeding 8?
label 1

Is it the case that COc1ccccc1N1CCN(CCCCNC(=O)NN(Cc2ccccc2)c2ccc(F)cc2)CC1 has pKi reaching or exceeding 8?
label 1

Is it the case that COc1ccccc1N1CCN(CCNC(=O)/N=N/c2ccc(F)cc2)CC1 has pKi reaching or exceeding 8?
label 0

Is it the case that COc1ccccc1N1CCN(CCCNC(=O)NN(Cc2cccc(F)c2)c2ccc(F)cc2)CC1 has pKi reaching or exceeding 8?
label 1
